B1: library; numbered along this chain (parent)
chain: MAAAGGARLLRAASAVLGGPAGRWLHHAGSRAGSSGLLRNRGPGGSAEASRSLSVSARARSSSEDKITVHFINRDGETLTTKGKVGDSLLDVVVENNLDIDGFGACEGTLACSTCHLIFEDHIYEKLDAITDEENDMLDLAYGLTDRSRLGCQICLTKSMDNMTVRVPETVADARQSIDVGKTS

- Variants of: B1
- Test description: scaled log2 fold change in cell abundance, elesclomol vs control (0 = silent mean, 1 = nonsense mean) (scaled log2 ratio); higher = higher viability under elesclomol (loss of FDX1 cuproptosis function);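 also: variant abundance is its share of total variant reads in each endpoint sample, from next-generation sequencing of the integrated ORF PCR-amplified out of genomic DNA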
- Condition description: with ABC1 FDX1 KO; elesclomol 5 nM; glucose 10 mM; 14 days
Lab note: class by scaled log2 fold change, see bottom range (below -0.4), center range (-0.4 to below 0.2), top range (0.2 or more)

Some solved cases for reference:
I154E
top range
V165W
top range
R149L
top range
P168D
top range
G6S
bottom range

Now let's try a different one.
QUERY: Sort into band: T183K
RESULT: center range
